Tested on: RPMI-8226 leukemia
Assay: NCI tumour cell line growth inhibition, 48 h
I'd be grateful if you could share measured TGI for these entries.
Write the value in µM as a bare number.

# query: TGI of entry Nc1c(C(=O)c2ccc(Cl)c(Cl)c2)[nH]c(NCc2ccccc2)c1C(=S)Nc1ccccc1
6.03

# query: TGI of entry Clc1ccc2c(c1)N(CCCN1CCCC13CCCCC3)c1ccccc1S2
11.3

# query: TGI of entry COc1ccc2[nH]c(C(=O)N3CCN(C(=O)OCc4ccc5c(Cl)cc(Cl)c(O)c5n4)CC3)cc2c1
0.962

# query: TGI of entry O=C1c2cc3c(cc2-c2c1c1cc(F)c(F)cc1c(=O)n2CCCn1ccnc1)OCO3
0.673
